Measured Kd accompanies every entry in the list below.
Biological target: T1, human Aβ (1-40) peptide (human)
T1 construct: also called Aβ1-40 fibers
Assay: SPR, immobilized fibers;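 further: biacore SPR using in vitro grown Aβ1-40 or Aβ1-42 fibrils immobilized on the chip with Fab analytes, KD from koff/kon fits or equilibrium isotherms based on total Fab concentration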

binder: MS-Roche #7.11.H1 Fab (Fab, V domains shown) VH: QVQLVESGGGLVQPGGSLRLSCAASGFTFSSYAMSWVRQAPGKGLEWVSGINAAGFRTYYADSVKGRFTISRDNSKNTLYLQMNSLRAEDTAVYYCARGKGNTHKPYGYVRYFDVWGQGTLVTVSS VL: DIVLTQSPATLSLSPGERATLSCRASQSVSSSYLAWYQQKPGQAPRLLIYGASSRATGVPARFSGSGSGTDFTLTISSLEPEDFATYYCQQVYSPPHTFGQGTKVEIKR
result.units: nM
Kd: 12.7

binder: MS-Roche #7.11.H4 Fab (Fab, V domains shown) VH: QVQLVESGGGLVQPGGSLRLSCAASGFTFSSYAMSWVRQAPGKGLEWVSAINANGYKTYYADSVKGRFTISRDNSKNTLYLQMNSLRAEDTAVYYCARGKGNTHKPYGYVRYFDVWGQGTLVTVSS VL: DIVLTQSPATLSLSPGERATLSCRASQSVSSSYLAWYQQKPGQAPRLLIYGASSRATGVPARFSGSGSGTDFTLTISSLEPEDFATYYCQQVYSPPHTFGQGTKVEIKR
result.units: nM
Kd: 1

Data provenance is patent US20100172907A1.
